Test system: RB1^del G401 cells
assay text: Cell viability (CellTiter-Glo), G401 RB1^del clones E1 and F2
Format: cell-based
condition label: Homo sapiens, G-401, 144 h, G401 RB1^del E1 clone, barasertib for 6 days; read-out: half-maximal effective concentration
reported metric: EC50 (nM)
# value in nM; strip the unit string

Q: Fill blank: measured EC50 of the molecule `CCN(CCCOc1ccc2c(Nc3cc(CC(=O)Nc4cccc(F)c4)n[nH]3)ncnc2c1)CCOP(=O)(O)O` is ____.
Ans: 5.5
